Listed here: items and their measured kon.
Target: T1, human [1-305]-mouse chimeric EL (human; mouse, UniProt Q9WVG5 306-500)
T1 construct: Heparin extract, captured or detected by an anti-C2-tag antibody; also called human-mouse chimeric EL
T1 sequence: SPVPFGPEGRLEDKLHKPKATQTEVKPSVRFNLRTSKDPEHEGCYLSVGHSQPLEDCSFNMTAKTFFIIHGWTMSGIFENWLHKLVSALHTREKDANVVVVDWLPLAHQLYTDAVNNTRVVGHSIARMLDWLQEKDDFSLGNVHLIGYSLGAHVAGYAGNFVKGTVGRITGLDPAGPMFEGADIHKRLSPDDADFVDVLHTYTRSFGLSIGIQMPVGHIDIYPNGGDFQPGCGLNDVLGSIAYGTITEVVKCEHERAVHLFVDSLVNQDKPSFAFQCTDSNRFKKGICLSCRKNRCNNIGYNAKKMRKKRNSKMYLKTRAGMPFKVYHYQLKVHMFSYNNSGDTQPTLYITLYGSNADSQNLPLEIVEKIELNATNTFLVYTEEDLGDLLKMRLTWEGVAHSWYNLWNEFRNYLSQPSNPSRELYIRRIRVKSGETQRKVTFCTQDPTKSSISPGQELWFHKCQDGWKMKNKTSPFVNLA
Test: Biacore; EL captured by anti-C2-tag Ab; bivalent fit

Worked set:
| BINDER | kon |
| --- | --- |
| h55A1-F6 (antibody, V domains shown, humanized) VH: QVQLVQSGAEVKKPGASVKVSCKASGYTFTNYGMNWVRQAPGQGLEWMGWINTYSGVPTYAGDFKGRFTFTLDTSTSTAYMELSSLRSEDTAVYYCARRGYYGRRYFDVWGKGTTVTVSS VL: EIVMTQSPATLSVSPGERATLSCKASQSVDYDVDSYMHWYQQKPGQAPRLLIYAASNLASGIPARFSGSGSGTEFTLTISSLQSEDFAVYYCQQTIEDPPTFGGGTKVEIK | 160000 M⁻¹ s⁻¹ |
| h16B3-F1 (antibody, V domains shown, humanized) VH: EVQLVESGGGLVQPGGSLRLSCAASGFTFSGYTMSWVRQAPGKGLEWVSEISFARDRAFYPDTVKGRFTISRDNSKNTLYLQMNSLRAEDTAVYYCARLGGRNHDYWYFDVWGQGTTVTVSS VL: DIQMTQSPSSLSASVGDRVTITCRASESVEYYGTSLMQWYQQKPGKAPKLLIYAASNVESGVPSRFSGSGSGTDFTLTISSLQPEDFATYYCQQSWKVPFTFGQGTKLEIK | 38000 M⁻¹ s⁻¹ |

(Q) Data request, read-out kon, for h16B3-S8 (antibody, V domains shown, humanized) VH: EVQLVESGGGLVQPGGSLRLSCAASGFTFSAYTMSWVRQAPGKGLEWVSDISFARDRAFYPDTVKGRFTISRDNSKNTLYLQMNSLRAEDTAVYYCARLGGKNRDFWYFDLWGQGTTVTVSS VL: DIVMTQSPDSLAVSLGERATINCRASESVEYYGTSLMQWYQQKPGQPPKLLIYAASNVESGVPDRFSGSGSGTDFTLTISSLQAEDVAVYYCQQSWRVPFTFGQGTKLEIK
(A) 52000 M⁻¹ s⁻¹
